Values from ChEMBL document CHEMBL1124296

Items are presented alongside their recorded log10 of K.
Tested on: Calf thymus DNA
PROTOCOL_DETAILS: Binding constant to DNA measured spectrophotometrically
Type: nucleic-acid assay
CONDITIONS_USED: Bos taurus
MEASUREMENT_TYPE: log10 of K (log10 of the value in M⁻¹)

SMILES_NOTATION: CN(C)CCOc1nccc(-c2cccs2)n1
log10 of K: 3.53
--
SMILES_NOTATION: Cc1ccnc(-c2cc(COCCN(C)C)ccn2)c1
log10 of K: 3.48
--
SMILES_NOTATION: CN(C)CCSc1nccc(-c2nccs2)n1
log10 of K: 3.97
--
SMILES_NOTATION: CN(C)CCSc1nccc(-c2ccccc2)n1
log10 of K: 3.93
--
SMILES_NOTATION: CSc1cc(-c2cccs2)nc(NCCN(C)C)n1
log10 of K: 4.14
--
SMILES_NOTATION: CN(C)CCOc1ccccc1-c1ccccc1
log10 of K: 3.48
--
SMILES_NOTATION: Cc1cc(-c2cccs2)nc(SCCN(C)C)n1
log10 of K: 4.39
--
SMILES_NOTATION: CN(C)CCSc1nccc(-c2cccn2C)n1
log10 of K: 4.00
--
SMILES_NOTATION: CN(C)CCSc1nccc(-c2ccco2)n1
log10 of K: 3.54
--
SMILES_NOTATION: CN(C)CCOc1cccc(-c2ccccc2)c1
log10 of K: 3.48
--
SMILES_NOTATION: CSc1nc(NCCN(C)C)cc(-c2cccs2)n1
log10 of K: 3.83
--
SMILES_NOTATION: CN(C)CCSc1nccc(-c2cccs2)n1
log10 of K: 4.27
--
SMILES_NOTATION: CN(C)CCNc1nccc(-c2cccs2)n1
log10 of K: 3.64
--
SMILES_NOTATION: Cc1cnc(SCCN(C)C)nc1-c1cccs1
log10 of K: 4.68
--
SMILES_NOTATION: CN(C)CCOc1ccc(-c2ccccc2)cc1
log10 of K: 3.48
--
SMILES_NOTATION: CN(C)CCNc1nccc(-c2nccs2)n1
log10 of K: 3.59
